Hey, just so you know, these numbers are from paper PMC6399333.

Target: AMPK γ1 subunit (in the α2β2γ1 AMPfret heterotrimer) (Rattus norvegicus, UniProt P80385)
Construct: gene Prkag1; with AMPK α2 (PRKAA2, Rattus norvegicus) and AMPK β2 (PRKAB2, Homo sapiens)
Sequence (P80385 whole entry): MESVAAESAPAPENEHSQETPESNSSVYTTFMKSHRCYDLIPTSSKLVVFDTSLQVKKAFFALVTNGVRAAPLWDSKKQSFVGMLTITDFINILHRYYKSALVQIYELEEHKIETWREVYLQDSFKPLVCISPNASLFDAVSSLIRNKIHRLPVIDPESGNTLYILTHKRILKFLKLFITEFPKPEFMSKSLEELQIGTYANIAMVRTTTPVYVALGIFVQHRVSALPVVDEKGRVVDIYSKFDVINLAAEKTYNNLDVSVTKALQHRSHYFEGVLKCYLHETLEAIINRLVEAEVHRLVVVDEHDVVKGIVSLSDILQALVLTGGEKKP
Sequence (Q09137 whole entry partner): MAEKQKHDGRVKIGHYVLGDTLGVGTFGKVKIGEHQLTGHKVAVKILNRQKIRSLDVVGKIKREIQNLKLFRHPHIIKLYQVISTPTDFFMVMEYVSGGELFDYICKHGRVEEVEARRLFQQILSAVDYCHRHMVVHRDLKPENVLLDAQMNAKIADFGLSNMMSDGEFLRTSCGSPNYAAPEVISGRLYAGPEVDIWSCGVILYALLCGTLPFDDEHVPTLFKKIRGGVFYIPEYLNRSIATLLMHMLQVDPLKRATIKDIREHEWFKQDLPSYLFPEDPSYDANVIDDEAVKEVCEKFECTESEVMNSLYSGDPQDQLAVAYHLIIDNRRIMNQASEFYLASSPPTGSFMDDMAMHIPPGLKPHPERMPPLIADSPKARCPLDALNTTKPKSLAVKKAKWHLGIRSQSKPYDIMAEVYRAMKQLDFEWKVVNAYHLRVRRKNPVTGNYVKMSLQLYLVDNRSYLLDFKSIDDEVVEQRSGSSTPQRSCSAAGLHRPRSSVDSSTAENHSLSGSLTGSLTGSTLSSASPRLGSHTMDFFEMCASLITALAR
Sequence (O43741 whole entry partner): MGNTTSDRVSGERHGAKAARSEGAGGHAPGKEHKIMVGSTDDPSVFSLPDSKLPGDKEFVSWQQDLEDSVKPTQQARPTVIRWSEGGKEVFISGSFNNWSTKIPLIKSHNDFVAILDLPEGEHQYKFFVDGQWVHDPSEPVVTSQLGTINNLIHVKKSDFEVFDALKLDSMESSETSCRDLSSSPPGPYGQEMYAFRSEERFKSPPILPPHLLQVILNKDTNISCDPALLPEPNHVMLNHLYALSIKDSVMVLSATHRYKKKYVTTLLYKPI
Assay: fluorometric FRET titration of the purified sensor, single-site fit
Assay type: binding
pKd: −log10 of the molar value.
measurementName: pKd

{"compoundStructureString": "Nc1ncnc2c1ncn2[C@@H]1O[C@H](COP(=O)(O)OP(=O)(O)O)[C@@H](O)[C@H]1O", "valueReported": 5.12}

* * *

Biological target: AMPK γ1 subunit (in the α2β2γ1 AMPfret heterotrimer) (Rattus norvegicus)
Construct: gene Prkag1; with AMPK α2 (PRKAA2, Rattus norvegicus) and AMPK β2 (PRKAB2, Homo sapiens)
Assay: fluorometric FRET titration of the purified sensor, single-site fit; also allosteric activation in kinase assay
Format: binding
pKd: −log10 of the molar value.
measurementName: pKd

{"compoundStructureString": "Nc1ncnc2c1ncn2[C@@H]1O[C@H](COP(=O)(O)O)[C@@H](O)[C@H]1O", "valueReported": "~5.82"}
